Hey, just so you know, these numbers are from the supplement of paper PMC11061612.

# System: DMS-53 (Small Cell Lung Carcinoma)
# test_summary: Bliss excess, mean over the matrix (fraction); higher = more synergy
Each entry below carries its reported Bliss excess.
// return a plain number; no unit text

compound	Bliss excess
CN(C)CCCOc1ccc(-c2ccc3ncc4c(c3c2)n(C2CCOCC2)c(=O)n4C)cn1 [AZD0156] + C[C@@H]1COCCN1C2=NC(=NC(=C2)C3(CC3)[S@](=N)(=O)C)C4=C5C=CNC5=NC=C4 [AZD6738] (first compound max 1 µM, 7x7, partner max 10 µM)	-0.0249

Moving on to another compound below.
Indicate its recorded Bliss excess; the compound in question is COc1cc2ncnc(Nc3ccc(F)c(Cl)c3)c2cc1OCCCN1CCOCC1 [Gefitinib] + CC(C)n1c(=O)n(C)c2cnc3cc(F)c(-c4ccc(OCCCN5CCCCC5)nc4)cc3c21 [AZD1390] (first compound max 10 µM, 7x7, partner max 0.3 µM)
-0.0243

* * *

# Test system: RH-41 (Rhabdomyosarcoma)
# test_summary: Bliss excess, mean over the matrix (fraction); higher = more synergy
Here the recorded Bliss excess is given for each entry.
Respond using a number only.

compound	Bliss excess
CS(=O)(=O)CCNCc1ccc(-c2ccc3ncnc(Nc4ccc(OCc5cccc(F)c5)c(Cl)c4)c3c2)o1 [Lapatinib] + C[C@@H](Oc1cc(-c2cnn(C3CCNCC3)c2)cnc1N)c1c(Cl)ccc(F)c1Cl [Crizotinib] (first compound max 10 µM, 7x7, partner max 10 µM)	-0.0054

Now consider a different compound.
For CN(CCO)CC[C@H](CSc1ccccc1)Nc1ccc(S(=O)(=O)NC(=O)c2ccc(N3CCC([C@@H](O)c4ccccc4-c4ccc(Cl)cc4)CC3)cc2)cc1S(=O)(=O)C(F)(F)F [AZD4320] + C[C@@H](Nc1cc(F)cc(F)c1)c1cc(C(=O)N(C)C)cc2c(=O)cc(N3CCOCC3)oc12 [AZD8186] (first compound max 1 µM, 7x7, partner max 3 µM) , write its Bliss excess.
0.0706

* * *

Entries and their combination Emax values follow.
# Test system: NB13 (Neuroblastoma)
# test_summary: combination Emax (second highest fraction inhibited in the dose matrix, 72 h); higher = more inhibition; extreme values may be limits of the assay
Answer as a number with no unit attached.

compound	measured_on	val
CC1(C)CCC(CN2CCN(c3ccc(C(=O)NS(=O)(=O)c4ccc(NCC5CCOCC5)c([N+](=O)[O-])c4)c(Oc4cnc5[nH]ccc5c4)c3)CC2)=C(c2ccc(Cl)cc2)C1 [Venetoclax] + C[C@@H](Nc1cc(F)cc(F)c1)c1cc(C(=O)N(C)C)cc2c(=O)cc(N3CCOCC3)oc12 [AZD8186] (first compound max 1 µM, 7x7, partner max 3 µM)	NB13 (Neuroblastoma)	0.253

Okay, next one:
Consider the compound CC1(C)CCC(CN2CCN(c3ccc(C(=O)NS(=O)(=O)c4ccc(NCC5CCOCC5)c([N+](=O)[O-])c4)c(Oc4cnc5[nH]ccc5c4)c3)CC2)=C(c2ccc(Cl)cc2)C1 [Venetoclax] + CS(=O)(=O)CCNCc1ccc(-c2ccc3ncnc(Nc4ccc(OCc5cccc(F)c5)c(Cl)c4)c3c2)o1 [Lapatinib] (first compound max 1 µM, 7x7, partner max 10 µM) . State its measured combination Emax.
0.43

* * *

# Test system: JVM-2 (B-Cell Non-Hodgkin's Lymphoma)
# test_summary: combination Emax (second highest fraction inhibited in the dose matrix, 72 h); higher = more inhibition; extreme values may be limits of the assay
Returns criterion met if the recorded combination Emax is greater than or equal to 0.9, and criterion not met otherwise.

Does combination Emax meet or surpass 0.9 for CC1(C)CCC(CN2CCN(c3ccc(C(=O)NS(=O)(=O)c4ccc(NCC5CCOCC5)c([N+](=O)[O-])c4)c(Oc4cnc5[nH]ccc5c4)c3)CC2)=C(c2ccc(Cl)cc2)C1 [Venetoclax] + CN(C)CCCOc1ccc(-c2ccc3ncc4c(c3c2)n(C2CCOCC2)c(=O)n4C)cn1 [AZD0156] (first compound max 1 µM, 7x7, partner max 1 µM) ?
criterion not met

I'd appreciate it if you could say whether CC(=O)Nc1cccc(-n2c(=O)n(C3CC3)c(=O)c3c(Nc4ccc(I)cc4F)n(C)c(=O)c(C)c32)c1 [Trametinib] + Cc1nc(-c2cn3c(n2)-c2ccc(-c4cnn(C(C)(C)C(N)=O)c4)cc2OCC3)n(C(C)C)n1 [Taselisib] (first compound max 1 µM, 7x7, partner max 10 µM) has combination Emax at least equal to 0.9.
criterion not met

Hi, just wondering whether COc1cccc(OCCCN)c1-c1cc(Nc2cnc(C#N)cn2)n[nH]1 [Prexasertib] + O=C(c1cc(Cc2n[nH]c(=O)c3ccccc23)ccc1F)N1CCN(C(=O)C2CC2)CC1 [Olaparib] (first compound max 1 µM, 7x7, partner max 10 µM) shows combination Emax of 0.9 or higher.
criterion met

Is combination Emax at least 0.9? Consider NC1(C(=O)N[C@@H](CCO)c2ccc(Cl)cc2)CCN(c2ncnc3[nH]ccc23)CC1 [Capivasertib] + CCN(CCO)CCCOc1ccc2c(Nc3cc(CC(=O)Nc4cccc(F)c4)[nH]n3)ncnc2c1 [AZD2811] (first compound max 10 µM, 7x7, partner max 1 µM)
criterion not met
